TEST_DETAILS: Toxicity against Artemia larvae
Assay type: organism-based
STATED_CONDITIONS: in vivo, read-out: LD50 (the source's name)
Consider the following compounds; for each one, report its LC50.
Numbers only, in µg/mL.

In the examples that follow, each entry is paired with its recorded LC50.
Q. Recorded LC50 of CCCC[C@H](C)CC1(CC)C=C(CC)C(CC(=O)OC)OO1 (some centres undefined) , please.
A. 70

Q. Recorded LC50 of CCCC[C@H](C)C[C@]1(CC)C=C(CC)/C(=C/C(=O)OC)O1 , please.
A. 7

// next item, LC50 requested
Q. Recorded LC50 of CCCC[C@H](C)CC(CC)C[C@@]1(CC)C[C@H](CC)[C@H](CC(=O)O)OO1 (some centres undefined) , please.
A. 15
